- target.of.assay: Urokinase-type plasminogen activator (Homo sapiens, UniProt P00749)
- method.notes: Inhibition of human kidney uPA using chromogenic H-D-Ile-L-Pro-L-Arg-p-nitoraniline as substrate by fluorescence assay
measured.metric: IC50 (nM)
Give just the numeric value; nM need not be written.

Task: Requested read-out: IC50. Entry: N=C(N)NC(=O)c1nc(-c2cc3ccccc3o2)c(N2CCCCCC2)nc1N
Result: 530

Task: Can you check COc1ncc(-c2nc(C(=O)NC(=N)N)c(N)nc2N2CCCCCC2)cn1 next?
Result: 39

Task: Can you check N=C(N)NC(=O)c1nc(Cl)c(N2CCCCCC2)nc1N [N,N-HEXAMETHYLENEAMILORIDE] next?
Result: 2400

Task: Can you check N=C(N)NC(=O)c1nc(-c2cc3c(F)cccc3o2)c(N2CCCCCC2)nc1N next?
Result: 430
